EXPERIMENT_DESCRIPTION: Tmax in Sprague-Dawley rat at 30 mg/kg, po measured for 24 hrs by LC-MS/MS-18 analysis
Format: ADME, organism-based
RUN_CONDITIONS: in vivo
MEASUREMENT_KIND: Tmax (h)
Answers are plain numbers, in h.

Exercise: I am curious: what Tmax value has been reported for COc1cc(OC)cc(N(CCNC(C)C)c2ccc3ncc(-c4cnn(CCCCCCC(=O)NO)c4)nc3c2)c1 ?
Key: 4

====

EXPERIMENT_DESCRIPTION: Cmax in Sprague-Dawley rat at 2 mg/kg, iv measured for 24 hrs by LC-MS/MS-18 analysis
Assay type: ADME, organism-based
Parameters: time 24 hrs, dose 2 mg/kg, route iv
RUN_CONDITIONS: in vivo
MEASUREMENT_KIND: Cmax (ng/mL)
One number for each entry, in ng/mL.

Exercise: Name the recorded Cmax for COc1cc(OC)cc(N(CCNC(C)C)c2ccc3ncc(-c4cnn(CCCCCCC(=O)NO)c4)nc3c2)c1 .
Key: 1120

====

EXPERIMENT_DESCRIPTION: Tmax in Sprague-Dawley rat at 2 mg/kg, iv measured for 24 hrs by LC-MS/MS-18 analysis
Type: ADME, organism-based
RUN_CONDITIONS: in vivo
MEASUREMENT_KIND: Tmax (min)
Answers are plain numbers, in min.

Exercise: Looking for the measured Tmax of COc1cc(OC)cc(N(CCNC(C)C)c2ccc3ncc(-c4cnn(CCCCCCC(=O)NO)c4)nc3c2)c1 , can you help?
Key: 4.8

====

EXPERIMENT_DESCRIPTION: Volume of distribution at steady state in Sprague-Dawley rat at 2 mg/kg, iv measured for 24 hrs by LC-MS/MS-18 analysis
Format: ADME, organism-based
RUN_CONDITIONS: in vivo, read-out: Vdss
MEASUREMENT_KIND: Vd
Returns: string containing the numeric result and its unit.

Exercise: Item COc1cc(OC)cc(N(CCNC(C)C)c2ccc3ncc(-c4cnn(CCCCCCC(=O)NO)c4)nc3c2)c1 has what recorded Vd?
Key: 2.79 L/kg

====

EXPERIMENT_DESCRIPTION: Half life in Sprague-Dawley rat at 5 mg/kg, ip measured for 24 hrs by LC-MS/MS-18 analysis
Format: ADME, organism-based
RUN_CONDITIONS: in vivo
MEASUREMENT_KIND: half-life
Report the figure along with its unit, number first.

Exercise: Consider the compound shown here: COc1cc(OC)cc(N(CCNC(C)C)c2ccc3ncc(-c4cnn(CCCCCCC(=O)NO)c4)nc3c2)c1 What is its recorded half-life?
Key: 1.83 h

====

EXPERIMENTAL_SYSTEM: UniProtKB P11362
Sequence (P11362 whole entry): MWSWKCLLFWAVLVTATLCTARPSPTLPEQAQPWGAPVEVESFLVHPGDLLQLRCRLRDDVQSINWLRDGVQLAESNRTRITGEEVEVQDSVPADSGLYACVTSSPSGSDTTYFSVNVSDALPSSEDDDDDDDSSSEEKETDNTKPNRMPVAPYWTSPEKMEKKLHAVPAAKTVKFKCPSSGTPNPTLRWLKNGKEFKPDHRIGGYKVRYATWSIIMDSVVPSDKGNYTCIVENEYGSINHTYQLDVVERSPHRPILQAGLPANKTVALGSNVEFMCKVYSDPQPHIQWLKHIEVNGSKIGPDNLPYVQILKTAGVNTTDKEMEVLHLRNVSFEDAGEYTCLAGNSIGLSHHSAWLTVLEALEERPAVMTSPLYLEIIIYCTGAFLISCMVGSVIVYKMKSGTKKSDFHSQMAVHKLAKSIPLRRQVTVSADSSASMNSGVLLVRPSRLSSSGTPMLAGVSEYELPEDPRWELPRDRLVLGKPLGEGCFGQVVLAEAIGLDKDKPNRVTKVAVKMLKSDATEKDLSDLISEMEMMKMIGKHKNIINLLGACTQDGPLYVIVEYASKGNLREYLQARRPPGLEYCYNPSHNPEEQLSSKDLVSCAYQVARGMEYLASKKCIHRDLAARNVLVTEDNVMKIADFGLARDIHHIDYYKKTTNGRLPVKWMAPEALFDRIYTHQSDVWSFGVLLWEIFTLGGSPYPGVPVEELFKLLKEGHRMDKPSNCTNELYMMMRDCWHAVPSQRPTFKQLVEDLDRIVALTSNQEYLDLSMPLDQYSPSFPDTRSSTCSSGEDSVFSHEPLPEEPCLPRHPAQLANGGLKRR
MEASUREMENT_KIND: pIC50
One number for each entry, as −log10 of the molar value.

Exercise: Please give the measured pIC50 for this compound: COc1cc(OC)cc(N(CCNC(C)C)c2ccc3ncc(-c4cnn(Cc5ccc(/C=C/C(=O)NO)cc5)c4)nc3c2)c1
Key: 7.55

====

EXPERIMENT_DESCRIPTION: Cmax in Sprague-Dawley rat at 5 mg/kg, ip measured for 24 hrs by LC-MS/MS-18 analysis
Type: ADME, organism-based
Parameters: time 24 hrs, dose 5 mg/kg, route ip
RUN_CONDITIONS: in vivo
MEASUREMENT_KIND: Cmax (µg/mL)
Answers are plain numbers, in µg/mL.

Exercise: I'd like to know its Cmax. The molecule in question is COc1cc(OC)cc(N(CCNC(C)C)c2ccc3ncc(-c4cnn(CCCCCCC(=O)NO)c4)nc3c2)c1
Key: 0.102
